system: M. abscessus WT; construct: ATCC 19977; experiment: microbe, parasite or virus in culture; design: broth microdilution MIC according to CLSI, read at 14 days; details: Mycobacteroides abscessus, 336 h, read-out: WT MIC (µg/mL), day 14
measured endpoint: MIC (µg/mL)

smiles data	study system	unit of measure	bound operator	value
CC[C@H]1OC(=O)[C@H](C)[C@@H](O[C@H]2C[C@@](C)(OC)[C@@H](O)[C@H](C)O2)[C@H](C)[C@@H](O[C@@H]2O[C@H](C)C[C@H](N(C)C)[C@H]2O)[C@](C)(O)C[C@@H](C)CN(C)[C@H](C)[C@@H](O)[C@]1(C)O	M. abscessus WT	µg/mL	>	32
CC(=O)NC[C@H]1CN(c2ccc(N3CCOCC3)c(F)c2)C(=O)O1	M. abscessus WT	µg/mL	=	8
CC[C@H]1OC(=O)[C@H](C)[C@@H](O[C@H]2C[C@@](C)(OC)[C@@H](O)[C@H](C)O2)[C@H](C)[C@@H](O[C@@H]2O[C@H](C)C[C@H](N(C)C)[C@H]2O)[C@](C)(OC)C[C@@H](C)C(=O)[C@H](C)[C@@H](O)[C@]1(C)O	M. abscessus WT	µg/mL	=	2
CN[C@@H]1[C@H](O)[C@H](NC)[C@H]2O[C@@]3(O)C(=O)C[C@@H](C)O[C@H]3O[C@@H]2[C@H]1O	M. abscessus WT	µg/mL	=	512
CC[C@H]1OC(=O)[C@H](C)[C@@H](O[C@H]2C[C@@](C)(OC)[C@@H](O)[C@H](C)O2)[C@H](C)[C@@H](O[C@@H]2O[C@H](C)C[C@H](N(C)C)[C@H]2O)[C@](C)(O)C[C@@H](C)C(=O)[C@H](C)[C@@H](O)[C@]1(C)O	M. abscessus WT	µg/mL	>	32

---

Listing of recorded CC50 at 72 h by entry.
Assay: in vitro
Design: HepG2 cytotoxicity, Cell-Titer Glo
Conditions: human, hepg2 cells; read-out: HepG2 Cytotoxicity IC50
Protocol: MPS and cytotoxicity of experimental compounds and PTC-targeting controls against HepG2 (liver hepatocellular carcinoma cells ATCC HB-8065) were performed as previously described without any modifications (see ref. [56] for MPS assay and ref. [78] for cytotoxicity assay). […] Results reported as mean ± s.d., n = 3 biological replicate. […]

compound	CC50 at 72 h
CC(=O)N[C@H](CF)[C@H](O)c1ccc(S(C)(=O)=O)cc1	> 200 µM
CS(=O)(=O)c1ccc([C@@H](O)[C@@H](CO)NC(=O)C(Cl)Cl)cc1	> 200 µM
O=C(N[C@H](CO)[C@H](O)c1ccc([N+](=O)[O-])cc1)C(Cl)Cl	> 200 µM
CS(=O)(=O)c1ccc([C@@H](O)[C@H](N)CO)cc1	> 200 µM
CSc1ccc2c(c1)N(CCC1CCCCN1C)c1ccccc1S2 (stereo not drawn)	6.6 µM
O=C1CN(/N=C/c2ccc([N+](=O)[O-])o2)C(=O)N1	6.8 µM
